# EXPERIMENTAL_PROTOCOL: chemical genetic growth profiling, strain panel (AID 1159580);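 further: tested at 20 µM; growth read once vehicle control cultures reached saturation at 30 °C; 1 = growth at the plate median or of vehicle wells; lower values mean less growth of the strain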
# SETTINGS: S. cerevisiae deletion strains, growth OD, locus YMR223W, strain ubp8, hits give low values
The whole screen tested about 5,500 compounds, of which about 2,000 (36%) were called active. Inconclusive results (about 18%) are left out. The list shows a part of the results.
MEASUREMENT_NAME: normalized growth

compound="CC1CCc2cc(F)cc3c(=O)c(C(=O)O)cn1c23 (centres undefined)" measured_number=0.992
compound="CC1COc2c(N3CCN(C)CC3)c(F)cc3c(=O)c(C(=O)O)cn1c23 (centres undefined)" measured_number=1.02
compound="COC(=O)C[C@H]1C2(C)CC34OC5(C)O[C@@]6([C@H](OC(C)=O)C(OC(C)=O)[C@]7(C)C(/C(=C(/O)C(C)C)C(=O)O[C@H]7c7ccoc7)[C@@]6(O5)[C@H](OC(C)=O)[C@@]3(O)C2OC(=O)C(C)C)[C@]14C (some centres undefined)" measured_number=1.02
compound="COc1c(N2CCNC(C)C2)c(F)cc2c(=O)c(C(=O)O)cn(C3CC3)c12 (centres undefined)" measured_number=0.999

These data points were gathered from PubChem BioAssay AID1159580.
